- assayedTarget: farnesyl protein transferase (Homo sapiens, UniProt P49354+P49356)
- testProtocol: In vitro assay for inhibition of farnesyl protein transferase
- Assay type: biochemical
- condition: negative log value of the IC50-value; read-out: Enzyme activity pIC50 (converted)
- Protocol: Example C.1: “In Vitro Assay for Inhibition of Farnesyl Protein Transferase”: An in vitro assay for inhibition of farnesyl transferase was performed essentially as described in WO 98/40383, pages 33-34. Herein the effects of test compounds are expressed as pIC50 (the negative log value of the IC50-value) and as % of inhibition at 10^−7 M (see Table F-2)
// values below are reported IC50

compound: Cn1cncc1[C@@](N)(c1ccc(Cl)cc1)c1ccc2c(c1)C(c1cccc(Cl)c1)n1nnnc1N2 (single isomer, unassigned) [Compound 11]
IC50: > 0.1 µM

compound: CC(C)OC(=O)c1ccc(C(O)(c2ccc3c(c2)C(c2cccc(Cl)c2)n2nnnc2N3C)c2cncn2C)cc1 (mixture of isomers) [Compound 25]
IC50: < 0.1 µM

compound: Cc1ccc(C(N)(c2ccc3c(c2)C(c2cccc(Cl)c2)n2nnnc2N3)c2cncn2C)cc1 (single isomer, unassigned) [Compound 5]
IC50: < 0.001 µM

compound: Cn1cnnc1C(O)(c1ccc(I)cc1)c1ccc2c(c1)C(c1cccc(Cl)c1)n1nnnc1N2 (mixture of isomers) [Compound 16]
IC50: > 0.1 µM
